Kindly supply the reported inhibition values for the records listed here.
# ASSAY_COMMENT: 384-well plate pilot, post-Golgi transport modulator project, inhibition of yeast transport mutant growth (AID 636)
# RUN_CONDITIONS: absorbance 615 nm, about 18 h, stronger effect = higher value
Give bare numbers, in %.

Consider the worked cases shown below.
COMPOUND | UNIT_OF_MEASUREMENT | ASSAY_VALUE
CCOc1ccccc1NC(=O)CCN1CCN(S(=O)(=O)c2ccc(Br)cc2)CC1 | % | -6.8
CC(=O)Oc1ccc(-c2ccc(C(=O)O)cc2)cc1 | % | -0.64
CCCCN(CCCC)CCCNC(=O)CC1Oc2ccc(C)cc2NC1=O (stereo not drawn) | % | -6.76
COc1ccc(C(CNC(=O)CN2C(=O)NC3(CC(C)CC(C)(C)C3)C2=O)N2CCOCC2)cc1 (stereo not drawn) | % | -5.73
COc1ccc(NC(=O)c2cc(C(C)C)on2)c(OC)c1 | % | 0.51
Cn1c2ccccc2c2c(C(=O)NCCCN3CCCC3=O)cn(C3CCCCC3)c(=O)c21 | % | -4.53

Record inhibition per entry; entries follow.
1. CCn1cc(S(=O)(=O)CC(=O)Nc2ccc(OC)cc2)c2ccccc21
2. O=C(c1ccc(-c2cccc(C(F)(F)F)c2)o1)N1CCOCC1
3. Cc1cc(NC(=O)CSc2ccc(Cl)cc2)no1
4. COc1ccc2nc(NC(=O)C(NS(=O)(=O)c3cccs3)C(C)C)sc2c1 (stereo not drawn)
5. Cc1c2c(nc3nc4ccccc4n13)CC(C)(C)CC2=O
6. CCOC(=O)c1cc2cc(F)ccc2nc1C
7. CSCSC1=C(C#N)C(c2ccc(Cl)cc2)C(C(C)=O)=C(C)N1 (stereo not drawn)
8. Cc1ccccc1-n1c(=O)cc(N2CCN(C(=O)c3ccco3)CC2)[nH]c1=O

1. -1.6
2. -4.8
3. -0.66
4. -2.5
5. -3.42
6. -0.93
7. -5.32
8. 0.77

====

# ASSAY_COMMENT: SK-BR-3 cell growth inhibitors, pilot screen, 24 h, human (AID 572);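 further: compound exposure lasted between 18 and 24 h rather than exactly 24 h; 100% = carrier-treated control wells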
# RUN_CONDITIONS: SK-BR-3 viability, CellTiter-Glo luminescence, at 10 µM, stronger effect = lower value
MEASURED_PROPERTY: viability (%)
Give bare numbers, in %.

Consider the worked cases shown below.
COMPOUND | UNIT_OF_MEASUREMENT | viability
COCn1c(COc2ccccc2)nc2ccccc21 | % | 86.5
O=C(OCC(=O)c1cccs1)C1=COCCO1 | % | 89
O=C(NCc1cccs1)C1CC(=O)N(c2ccccc2)C1 (configuration not stated) | % | 96.5
CC(C)Oc1ccc(-c2nn(-c3ccccc3)cc2/C=c2\sc3ncnn3c2=O)cc1 | % | 84
CCCN(CCC)C(=O)CSc1nc2ccccc2c(=O)n1C1CCCC1 | % | 136
Cc1nc(SCC(=O)Nc2ccccc2C(F)(F)F)c2c(=O)n(C)c(=O)n(C)c2n1 | % | 87
CCn1c(C)c(CCC(=O)O)c(=O)n2nc(-c3ccccc3OC)cc12 | % | 91
CCC(=O)N1Cc2ccccc2-c2ccccc2C1=O | % | 102
COc1cccc(-c2nnc3sc(-c4ccc(C)cc4)nn23)c1 | % | 103
COc1ccccc1CN1CC(C(=O)N2CCN(c3ccc(F)cc3)CC2)CC1=O (configuration not stated) | % | 92

Record viability per entry; entries follow.
1. COc1cc(Cn2c(C(=O)O)cc3sccc32)cc(OC)c1OC
2. O=C(NCc1ccccc1)N1CCn2c(nc3ccccc32)C1
3. COc1ccc(OC)c(NC(=O)CS(=O)(=O)Cc2nc(-c3ccccc3C)oc2C)c1
4. COC(=O)c1ccc(NC(=O)CN2CCN(c3ccc(Cl)cc3)CC2)cc1
5. CCOC(=O)Cn1c2c(c(=N)c3ccccc31)CCC2
6. CCSc1nc2c(c(=O)n1CC)SC(C)C2 (configuration not stated)
7. [O-][n+]1c2ccc3nonc3c2nn1-c1ccccc1Cl
8. Cc1ccc(NC(=O)CSc2nnc(CSc3nc(C)cc(C)n3)n2Cc2ccco2)c(C)c1

1. 107
2. 93.5
3. 97.5
4. 96.5
5. 122
6. 102
7. 136
8. 88
